Origin of measurements: patent US20210380703A1

- test-target: T1, mouse ACVR2A (mouse, UniProt P27038 20-135, limits assumed); also: test concentration or dose not given here
- T1 construct: coated antigen of the initial ELISA
- T1 sequence (P27038 20-135 limits assumed): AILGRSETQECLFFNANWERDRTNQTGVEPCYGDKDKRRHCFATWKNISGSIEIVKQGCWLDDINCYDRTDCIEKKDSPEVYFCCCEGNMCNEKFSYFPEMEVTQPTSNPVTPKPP
- protocol-text: ELISA
In this section, each of the binders is paired with its reported optical density.
Entry rule: numbers only, all in OD.

| binder | optical density, OD |
| --- | --- |
| 371_C04 (antibody, V domains shown, Group III) VH: EVQLLESGGGLVQPGGSLRLSCAASGFTFDSYGMNWVRQAPGKGLEWVSGINYNSGYKGYADSVKGRFTISRDNSKNTLYLQMNSLRAEDTAVYYCARGANWHDTALDYWGQGTLVTVSS VL: DIQMTQSPSSLSASVGDRVTITCRASQSILSYLNWYQQKPGKAPKLLIYAATSRASGVPSRFSGSGSGTDFTLTISSLQPEDFATYYCQQSYSTPLTFGGGTKVEIK | 2.25 |

**Q:** Specify measured optical density for 371_F10 (antibody, V domains shown, Group III) VH: EVQLLESGGGLVQPGGSLRLSCAASGFTFDSYGMNWVRQAPGKGLEWVSGINYNSGYTSYADSVKGRFTISRDNSKNTLYLQMNSLRAEDTAVYYCARGANWHDTALDYWGQGTLVTVSS VL: DIQMTQSPSSLSASVGDRVTITCRASQSISSYLNWYQQKPGKAPKLVIYAVTSRASGVPSRFSGSGSGTDFTLTISSLQPEDFATYYCQQSYESPLTFGGGTKVEIK .
**A:** 2.31

**Q:** Provide measured optical density value, entry: 374_D05 (antibody, V domains shown, Group III) VH: EVQLLESGGGLVQPGGSLRLSCAASGFTFDSYSMNWVRQAPGKGLEWVSGINYNSGYTGYADSVKGRFTISRDNSKNTLYLQMNSLRAEDTAVYYCARGANWHDTHLDYWGQGTLVTVSS VL: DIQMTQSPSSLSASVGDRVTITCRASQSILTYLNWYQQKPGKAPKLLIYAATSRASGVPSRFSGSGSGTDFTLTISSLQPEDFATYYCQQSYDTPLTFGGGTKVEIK
**A:** 3.56
